Biological target: HCV NS5B polymerase (His-tagged, C-terminal 21 amino acid deleted NS5B, HC-J4) (Hepatitis C virus genotype 1b, UniProt O92972)
Construct: The cDNA encoding NS5B amino acid 1-570 (HC-J4, genotype 1b); His tag (His6, from pET-21b) (C); made in house; host or cells: E. coli BL21 (DE3)
Sequence (O92972 2417-3000, looked up, stated change not applied): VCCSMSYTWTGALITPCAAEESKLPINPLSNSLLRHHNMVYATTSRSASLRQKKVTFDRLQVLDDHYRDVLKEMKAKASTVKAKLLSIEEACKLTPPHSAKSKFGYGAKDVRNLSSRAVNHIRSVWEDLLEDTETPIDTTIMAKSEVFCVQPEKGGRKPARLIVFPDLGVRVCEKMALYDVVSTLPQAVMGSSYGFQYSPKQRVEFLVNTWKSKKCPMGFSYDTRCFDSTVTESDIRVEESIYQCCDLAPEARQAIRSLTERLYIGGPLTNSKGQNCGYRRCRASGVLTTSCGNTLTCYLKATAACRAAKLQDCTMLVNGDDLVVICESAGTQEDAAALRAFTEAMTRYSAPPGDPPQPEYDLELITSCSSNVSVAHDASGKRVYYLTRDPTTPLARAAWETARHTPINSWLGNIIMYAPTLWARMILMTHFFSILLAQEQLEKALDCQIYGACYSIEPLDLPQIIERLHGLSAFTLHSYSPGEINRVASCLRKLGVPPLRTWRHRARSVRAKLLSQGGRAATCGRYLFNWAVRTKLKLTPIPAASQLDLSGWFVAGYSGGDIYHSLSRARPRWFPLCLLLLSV
Experiment: NS5b polymerase assay (biochemical RdRp assay, 3H-GTP incorporation, SPA beads)
Design: species or system HCV genotype 1b
Conditions: NS5B Polymerase Assay IC50 (μM)
reported.metric: IC50

Examples from the recorded data:
# compound, IC50
data = [
    ("CCN1c2ccccc2NC2=C(C(=O)CC(C)(C)C2)C1c1ccc(Cl)cc1Cl (stereo not shown) [compound 508]", "> 42.7 µM"),
    ("O=C1CC(c2ccccc2)CC2=C1C(c1ccc(C(F)(F)F)cc1)Nc1ccccc1N2 (stereo not shown) [compound 343]", "> 42.7 µM"),
    ("CC1(C)CC(=O)C2=C(C1)Nc1ccccc1NC2/C(Br)=C/c1ccccc1 (racemic) [compound 500]", "> 133 µM"),
    ("COc1ccc(C2CC(=O)C3=C(C2)Nc2ccccc2NC3c2ccccc2C(F)(F)F)cc1 (stereo not shown) [compound 324]", "> 42.6 µM"),
]

Look up IC50 for this compound: CCn1c2ccccc2c2cc([C@@H]3Nc4ccccc4NC4=C3C(=O)C[C@@H](c3ccccc3)C4)ccc21 [compound 484] > 42.7 µM

Lookup COc1ccc([C@@H]2CC(=O)C3=C(C2)Nc2ccccc2N[C@H]3c2cc3c(cc2[N+](=O)[O-])OCO3)cc1 [compound 485] > 42.7 µM

Lookup CC1(C)CC(=O)C2=C(C1)Nc1cc(Cl)c(Cl)cc1NC2c1ccc(Cl)cc1Cl (stereo not shown) [compound 465] 60 µM

Lookup CC1(C)CC(=O)C2=C(C1)Nc1ccccc1NC2c1cccc(Oc2ccccc2)c1 (stereo not shown) [compound 433] > 133 µM

Lookup COc1ccc([C@@H]2CC(=O)C3=C(C2)Nc2ccccc2N[C@H]3c2ccc(C)s2)cc1 [compound 490] > 42.7 µM

Lookup O=C1CC(c2ccccc2)CC2=C1C(c1ccccc1C(F)(F)F)Nc1ccccc1N2 (stereo not shown) [compound 407] > 33.3 µM

Lookup CCCCOc1ccccc1C1Nc2ccccc2NC2=C1C(=O)CC(c1ccccc1)C2 (stereo not shown) [compound 338] > 42.7 µM

Lookup COC(=O)CN1c2ccccc2NC2=C(C(=O)CC(C)(C)C2)C1c1ccc(Cl)cc1Cl (stereo not shown) [compound 510] > 133 µM

Lookup CCN(CC)c1ccc(C2Nc3ccccc3NC3=C2C(=O)CC(c2ccc(OC)cc2)C3)cc1 (stereo not shown) [compound 363] > 42.7 µM

Lookup COc1cccc(C2Nc3ccccc3NC3=C2C(=O)CC(c2ccccc2)C3)c1OC (stereo not shown) [compound 347] > 42.7 µM

Lookup CC1(C)CC(=O)C2=C(C1)Nc1ccccc1NC2c1ccc(OCc2ccccc2)cc1OCc1ccccc1 (stereo not shown) [compound 445] > 133 µM

Lookup Cc1ccc(C2CC(=O)C3=C(C2)Nc2ccccc2NC3c2ccc(C)cc2)cc1 (stereo not shown) [compound 408] > 33.3 µM
